# credit: paper PMC10925991

# System: MCF-7 breast adenocarcinoma cells
# method-summary: MTT anti-proliferative assay, MCF-7
# Assay type: cell-based
# condition-label: Homo sapiens, MCF7, 48 h, read-out: IC50 (μM) ± SD MCF-7
experimental-readout: IC50 (µM)

Some solved entries appear below for comparison.
O=C(O)c1ccccc1Nc1nc(Nc2ccccc2C(=O)O)c2c(-c3ccc4ccccc4n3)cc(-c3ccccc3)nc2n1 : 27.1
c1ccc(Nc2nc(Nc3ccccc3)c3c(-c4ccc5ccccc5n4)cc(-c4ccccc4)nc3n2)cc1 [Compound 13a] : 23.9
COc1cccc2c1C(=O)c1c(O)c3c(c(O)c1C2=O)C[C@@](O)(C(=O)CO)C[C@@H]3O[C@H]1C[C@H](N)[C@H](O)[C@H](C)O1 [Doxorubicin, reference compound] : 10.5

P. CNC(=O)c1cc(Oc2ccc(NC(=O)Nc3ccc(Cl)c(C(F)(F)F)c3)cc2)ccn1 [Sorafenib, reference compound]
Q. c1ccc(-c2cc(-c3ccc4ccccc4n3)c3c(N4CCNCC4)nc(N4CCNCC4)nc3n2)cc1 [Compound 14a]
Q: Form field 'greater IC50' accepts P or Q ; which applies? Mark your answer with the label of the selected entry.
A: P
(P: 31 µM, Q: 18.7 µM)

* * *

# System: MCF-7 breast adenocarcinoma cells
# method-summary: MTT anti-proliferative assay, MCF-7
# Format: cell-based
# condition-label: Homo sapiens, MCF7, 48 h, read-out: IC50 (μM) ± SD MCF-7
experimental-readout: IC50 (µM)

NNc1nc(NN)c2c(-c3ccc4ccccc4n3)cc(-c3ccccc3)nc2n1 [Compound 11] : 29.5
CSc1nc(Cl)c2c(-c3ccc4ccccc4n3)cc(-c3ccccc3)nc2n1 [Compound 10] : 40.1
CS(=O)(=O)c1nc2nc(-c3ccccc3)cc(-c3ccc4ccccc4n3)c2c(=O)[nH]1 [Compound 6] : 37.8
Clc1ccc(Nc2nc(Nc3ccc(Cl)cc3)c3c(-c4ccc5ccccc5n4)cc(-c4ccccc4)nc3n2)cc1 [Compound 13b] : 21.8
O=c1c2c(-c3ccc4ccccc4n3)cc(-c3ccccc3)nc2nc2n(-c3ccccc3)nc(-c3ccccc3)n12 [Compound 5a] : 15.1
O=c1c2ccccc2nc2n1c1nc(-c3ccccc3)cc(-c3ccc4ccccc4n3)c1c1nc3ccccc3c(=O)n12 [Compound 16] : 6.2
O=c1[nH]c(=S)[nH]c2nc(-c3ccccc3)cc(-c3ccc4ccccc4n3)c12 [Compound 1] : 45.5
c1ccc(-c2cc(-c3ccc4ccccc4n3)c3c(N4CCOCC4)nc(N4CCOCC4)nc3n2)cc1 [Compound 14b] : 19.2

A. COc1ccc(Nc2nc(Nc3ccc(OC)cc3)c3c(-c4ccc5ccccc5n4)cc(-c4ccccc4)nc3n2)cc1 [Compound 13c]
B. O=c1[nH]c(N2CCOCC2)nc2nc(-c3ccccc3)cc(-c3ccc4ccccc4n3)c12 [Compound 7b]
Q: Which of these two has the smaller recorded IC50: A or B ? Mark your answer with the label of the selected entry.
A: A
(A: 22.5 µM, B: 32.5 µM)

* * *

# Test system: MCF-7 breast adenocarcinoma cells
# method-summary: MTT anti-proliferative assay, MCF-7
# Format: cell-based
# condition-label: Homo sapiens, MCF7, 48 h, read-out: IC50 (μM) ± SD MCF-7
experimental-readout: IC50 (µM)

Some solved entries appear below for comparison.
O=C(O)c1ccccc1Nc1nc2nc(-c3ccccc3)cc(-c3ccc4ccccc4n3)c2c(=O)[nH]1 [Compound 8] : 35.4
CSc1nc2nc(-c3ccccc3)cc(-c3ccc4ccccc4n3)c2c(=O)[nH]1 [Compound 2] : 43.2

a. O=c1[nH]c(N2CCNCC2)nc2nc(-c3ccccc3)cc(-c3ccc4ccccc4n3)c12 [Compound 7a]
b. CS(=O)(=O)CCNCc1ccc(-c2ccc3ncnc(Nc4ccc(OCc5cccc(F)c5)c(Cl)c4)c3c2)o1 [lapatinib, reference compound]
Q: Which of these two has the smaller recorded IC50: a or b ? Mark your answer with the label of the selected entry.
A: a
(a: 31.2 µM, b: 136 µM)
